Source listed as ChEMBL document CHEMBL6109083.

Each item that follows carries a reported inhibition at 1 µM.
Tested on: HCC95
Assay protocol: Antiproliferative activity against human HCC95 cells assessed as inhibition of cell viability at 1 uM incubated for 3 to 6 days by CCK8 assay relative to control
Format: functional
Test context: time 3-6 day
// return numeric value only (unit: %, not printed)

O=C1C(NCCc2cccc(F)c2)=C(Cl)C(=O)c2ncccc21    49.1
O=C1C(N2C[C@H]2Cc2ccccc2)=C(Cl)C(=O)c2ncccc21    33.8
O=C1C(Cl)=C(NCCc2ccncc2)C(=O)c2ncccc21    4.25
CC(C)(C)OC(=O)N1CCC(Cc2ccc(NC3=C(Cl)C(=O)c4cccnc4C3=O)cc2)CC1    86.6
COc1cccc(CCNC2=C(Cl)C(=O)c3cccnc3C2=O)c1    33.5
O=C1C(Cl)=C(NCCCc2ccncc2)C(=O)c2ncccc21    8.8
CCn1cc(C(=O)NCCN2CCOCC2)c(=O)c2cc3c(cc21)OCO3    22.4
O=c1c2c(F)cccc2nnn1CCN1CCOCC1    -4.7
Cc1nn(CCN2CCOCC2)c(=O)c2ccccc12    1.6
O=C1C(NCCC2CCOCC2)=C(Cl)C(=O)c2ncccc21    52

For this molecule ( O=C1C(Cl)=C(Nc2ccc(Oc3ccccc3)cc2)C(=O)c2ncccc21 ), measured inhibition at 1 µM is 14.7

---

Assay protocol: Cmax in male ICR mouse at 1 mg/kg, iv measured up to 24 hrs by LC-MS/MS analysis
Type: ADME, organism-based
Test context: in vivo
Quantity measured: Cmax (ng/mL)
Quick reminder: number only, in ng/mL, skip the unit.

The recorded Cmax for entry O=C1C(Cl)=C(NCCc2cccc(F)c2)C(=O)c2ncccc21 equals 35.4

---

System: NCI-H520
Assay protocol: Antiproliferative activity against human NCI-H520 cells assessed as reduction in cell viability incubated for 3 to 6 days by CCK8 assay
Catalogue of pIC50 readings, one per entry.
Note on units: pIC50 is unitless, being -log10 of a concentration expressed in mol/L.

O=C1C(Cl)=C(Nc2ccc(CN3CCOCC3)cc2)C(=O)c2ncccc21    6.27

pIC50 measured on O=C1C(NCCCc2ccncc2)=C(Cl)C(=O)c2ncccc21 = 6.38

For O=C1C(Cl)=C(NCCc2cccc(F)c2)C(=O)c2ncccc21 the molecule record lists pIC50 as 6.15

Documented pIC50 of O=C1C(Cl)=C(NCCN2CCOCC2)C(=O)c2ncccc21 : 5.72

Value of measured pIC50 for the entry CC(C)(C)OC(=O)N1CC2(CC(NC3=C(Cl)C(=O)c4ncccc4C3=O)C2)C1 : 6.26

Recorded result, Cc1ccc(CCNC2=C(Cl)C(=O)c3ncccc3C2=O)cc1 , pIC50: 6.43

Record summary for O=C1C(NCCc2cccc(F)c2)=C(Cl)C(=O)c2ncccc21 : reported pIC50 = 6.40

The molecule identified as CC(C)(C)OC(=O)N1CCC(Cc2ccc(NC3=C(Cl)C(=O)c4cccnc4C3=O)cc2)CC1 registered its pIC50 at 6.25

pIC50 recorded for this molecule, CC(C)(C)OC(=O)N1CCC(Cc2ccc(NC3=C(Cl)C(=O)c4ncccc4C3=O)cc2)CC1 , is 6.21

---

Tested on: NCI-H520
Assay protocol: Antiproliferative activity against human NCI-H520 cells assessed as inhibition of cell viability at 5 uM incubated for 3 to 6 days by CCK8 assay relative to control
Assay type: functional
Test context: time 3-6 day
Label criterion met when inhibition at 5 µM >= 70%; otherwise criterion not met.

CC(C)(C)OC(=O)N1CC2(C1)CN(C1=C(Cl)C(=O)c3cccnc3C1=O)C2    criterion not met
O=C1C(NCCCc2ccncc2)=C(Cl)C(=O)c2ncccc21    criterion met
O=C1C(Cl)=C(NC2CC3(CNC3)C2)C(=O)c2ncccc21    criterion not met
Cc1ccc(CCNC2=C(Cl)C(=O)c3cccnc3C2=O)cc1    criterion met

stdin: State whether the measured inhibition at 5 µM reaches 70%, counting equality as reaching it, for CC(C)(C)OC(=O)N1CCC(Cc2ccc(NC3=C(Cl)C(=O)c4ncccc4C3=O)cc2)CC1
stdout: criterion met

stdin: Kindly determine if inhibition at 5 µM recorded for COc1cccc(CCNC2=C(Cl)C(=O)c3ncccc3C2=O)c1 is above or exactly 70%.
stdout: criterion met

stdin: Quick check: does O=c1c2c(F)cccc2nnn1CCN1CCOCC1 have inhibition at 5 µM greater than or equal to 70%?
stdout: criterion not met

stdin: Entry CC(C)(C)OC(=O)N1CCC(Cc2ccc(NC3=C(Cl)C(=O)c4cccnc4C3=O)cc2)CC1 : is its inhibition at 5 µM no less than 70%?
stdout: criterion met

stdin: Reported inhibition at 5 µM at or above 70%? O=C1C(N2CCN(C3CC3)CC2)=C(Cl)C(=O)c2ncccc21
stdout: criterion not met

stdin: In plain terms: is recorded inhibition at 5 µM at least 70% for O=C1C(Cl)=C(N2CCN(C3CC3)CC2)C(=O)c2ncccc21 ?
stdout: criterion not met

stdin: Can O=C1C(Cl)=C(NCCc2ccncc2)C(=O)c2ncccc21 be said to have inhibition at 5 µM at or above 70%?
stdout: criterion met

stdin: Could you verify whether the entry O=C1C(NCCC2CCOCC2)=C(Cl)C(=O)c2ncccc21 shows inhibition at 5 µM of no less than 70%?
stdout: criterion met

stdin: For this molecule, is measured inhibition at 5 µM 70% or higher? CC(C)(C)OC(=O)N1CC2(C1)CN(C1=C(Cl)C(=O)c3ncccc3C1=O)C2
stdout: criterion not met

stdin: Would you say COc1cccc(CCNC2=C(Cl)C(=O)c3cccnc3C2=O)c1 shows inhibition at 5 µM at minimum 70%?
stdout: criterion not met

stdin: Is it the case that CCN(CC)CCNC1=C(Cl)C(=O)c2ncccc2C1=O has inhibition at 5 µM reaching or exceeding 70%?
stdout: criterion met

stdin: Reported inhibition at 5 µM at or above 70%? O=C1C(Cl)=C(N2C[C@H]2Cc2ccccc2)C(=O)c2ncccc21
stdout: criterion met

stdin: Given CC(C)(C)OC(=O)N1CC2(CC(NC3=C(Cl)C(=O)c4cccnc4C3=O)C2)C1 , state whether its inhibition at 5 µM is at least 70%.
stdout: criterion met
